Test system: A549 NSCLC
test.summary: NCI tumour cell line growth inhibition, 48 h
property.measured: TGI

> print(dat)
                                   compound    result
1  Cc1ccc(S(=O)(=O)N2CCNCCN(S(=O)(=O)c3ccc(C)cc3)CCN(S(=O)(=O)c3ccc(C)cc3)CC2)cc1  > 100 µM
2                COc1cc2c(cn1)[nH]c1ccccc12  > 100 µM
3  Cc1ccc(S(=O)(=O)NC(=O)NC(Cc2ccc(O)c(O)c2)C(=O)O)cc1 (stereo not drawn)  > 100 µM

* * *

Listed below: TGI values for each entry.
Tested on: SK-MEL-2 melanoma
test.summary: NCI tumour cell line growth inhibition, 48 h
property.measured: TGI

> print(dat)
                                    compound  target.or.test.system  property.measured     result
 1         COc1ccc(OC)c2c(=S)c3ccccc3[nH]c12      SK-MEL-2 melanoma                TGI   > 100 µM
 2  C#CC(O)/C=C/C(O)CCCC(O)CC#CC(O)C#CC(O)CCCC(O)/C=C/CCCC(=O)CCCCCCCCCCCCCCCC(O)C(O)C#CC(=O)O (configuration not stated)      SK-MEL-2 melanoma                TGI    > 50 µM
 3  c1ccc2c(c1)CC1COc3ccccc3C1O2 (configuration not stated)      SK-MEL-2 melanoma                TGI   > 100 µM
 4  COc1cc2c(cc1OC)-c1cc3cc(OC)c(OC)cc3c(=O)n1CC2      SK-MEL-2 melanoma                TGI  > 72.9 µM
 5          Cc1cc(=O)oc2cc(OS(C)(=O)=O)ccc12      SK-MEL-2 melanoma                TGI   > 100 µM
 6  CC1(O)CCC2(C#N)CCC1C2O (configuration not stated)      SK-MEL-2 melanoma                TGI   > 100 µM
 7  NC1CCC(N[C@@H]2C[C@H]2c2ccccc2)CC1 (some centres not stated)      SK-MEL-2 melanoma                TGI   > 100 µM
 8                 Cc1nc2ccccc2n1Cc1nnc(N)o1      SK-MEL-2 melanoma                TGI   > 100 µM
 9  CCSc1nnc(-c2ccc3ccccc3c2O)n1-c1ccc(Cl)cc1      SK-MEL-2 melanoma                TGI   > 100 µM
10  C=CC1=C(C)C2=NC1=CC1=NC(=CC3=C(C)C4=C(O)C(C(=O)OC)C(=C5NC(=C2)C(C)C5CCC(=O)OC)C4=N3)C(CC)=C1C (configuration not stated)      SK-MEL-2 melanoma                TGI   > 100 µM
11                          NC1(C(=O)O)CCCC1      SK-MEL-2 melanoma                TGI   > 625 µM
12  COc1cc(Nc2nc3ccc(C(F)(F)F)cc3nc2-c2ccccc2)cc(OC)c1OC      SK-MEL-2 melanoma                TGI   > 100 µM
